Experiment: basal 3T3-L1 adipocyte mitochondrial potential changes, profiling panel, cell-based, JC-1 fluorescence, 3T3-L1 adipocytes, 24 h, 100 nL compound (AID 1168); also: test concentration not given here
Details: JC-1 mitochondrial fluorescence, higher = more signal, called active from +8 up or from −8 down
# cutoff 0.2 applies to z-score; >= gives 1 (yes), < gives 0 (no)

* CC(C)C[C@@H]1NC(=O)C([C@@H](C)OCc2ccccc2)NC(=O)[C@@]23C(=O)N[C@@H](Cc4ccccc4)C2[C@H](C)[C@@]2(C)O[C@H]2C3/C=C/CC/C=C/CNC1=O (some centres undefined) | 0 (no)
* O=C1NC(=O)C2C1C=CC(C(O)c1cccc(O)c1)N2Nc1ccc(Cl)cc1Cl (centres undefined) | 0 (no)
* [N-]=[N+]=Nc1ccccc1[C@@H]1OC(c2ccc(OCCCO)cc2)=N[C@]1(Cc1ccccc1)C(N)=O | 0 (no)
* C=CC(CO)NC(=O)OCC1c2ccccc2-c2ccccc21 (centres undefined) | 1 (yes)
* CC(C)C[C@@H]1NC(=O)[C@@]23C(=O)N[C@@H](Cc4ccccc4)C2[C@H](C)[C@@]2(C)O[C@H]2C3/C=C/C/C=C\CNC(=O)[C@@H](CC(C)C)NC1=O (some centres undefined) | 0 (no)
* COCCOC(=O)N1C(=O)[C@@]2(c3cc(C#CC4(O)CCCCCC4)ccc31)[C@H](C(=O)N1CCc3cc(OC)c(OC)cc3C1)[C@H]1C(=O)O[C@H](c3ccccc3)[C@H](c3ccccc3)N1[C@@H]2c1ccc(O)cc1 | 0 (no)
* C=CCN1C(=O)[C@]2(O[C@H](CCO)[C@@H]([Si](C)(C)c3ccc(OC)cc3)[C@@H]2C)c2ccccc21 | 0 (no)
* CN(C)CCCCNC(=O)[C@H]1C[C@H]2C(=O)NCC(=O)N2[C@H]1c1cccc(OCCO)c1 | 1 (yes)
* COC(=O)C1=CC(CCCO)=CC(c2ccc(CN3CCCC3)cc2)N(Cc2sc3ccccc3c2Cl)C=C1C(=O)OC (centres undefined) | 1 (yes)
* CCc1cccc(NC(=O)O[C@H]2[C@H](OC(=O)Nc3ccc4c(c3)OCO4)[C@H](OC(=O)Nc3ccc4c(c3)OCO4)[C@@H](OC)O[C@@H]2CO)c1 | 1 (yes)
* C=CCC(OC(C)=O)[C@@H]1[C@@H](N(Cc2ccc(-c3ccccc3)cc2)C(=O)c2ccc(C)cc2)c2cc(OCCCO)ccc2N1C(=O)c1ccc2ccccc2c1 (some centres undefined) | 0 (no)
* CN(C)CCCC[C@@H]1NC(=O)[C@@H]2C[C@H](C(=O)NCc3ccc(F)cc3)[C@H](c3ccc(O)cc3)N2C1=O | 0 (no)
